The values you see were collected from ChEMBL document CHEMBL5131537.

Reported selectivity ratio values follow for various molecules
Experiment: in vitro
Settings: human, MT4 cells
Description: Selectivity index, ratio of CC50 for cytotoxicity against human MT4 cells to EC50 for antiviral activity against wild type HIV-1 IIIB infected in human MT4 cells
experimental_endpoint: selectivity ratio

molecule: Cc1cc(-c2ccccc2)cc(C)c1Oc1cc(N)nc(Nc2ccc(C#N)cc2)n1
experimental_endpoint: selectivity ratio
numeric_result: 2640
//
molecule: Cc1cc(-c2cccc(F)c2)cc(C)c1Oc1cc(N)nc(Nc2ccc(C#N)cc2)n1
experimental_endpoint: selectivity ratio
numeric_result: 1570
//
molecule: Cc1ccc(-c2cc(C)c(Oc3cc(N)nc(Nc4ccc(C#N)cc4)n3)c(C)c2)cc1
experimental_endpoint: selectivity ratio
numeric_result: 249
//
molecule: Cc1cc(-c2cccc(C#N)c2)cc(C)c1Oc1cc(N)nc(Nc2ccc(C#N)cc2)n1
experimental_endpoint: selectivity ratio
numeric_result: 2890
//
molecule: Cc1cc(-c2ccc(C#N)cc2)cc(C)c1Oc1cc(N)nc(Nc2ccc(C#N)cc2)n1
experimental_endpoint: selectivity ratio
numeric_result: 3870
//
molecule: COc1ccc(-c2cc(C)c(Oc3cc(N)nc(Nc4ccc(C#N)cc4)n3)c(C)c2)cc1
experimental_endpoint: selectivity ratio
numeric_result: 1390
//
molecule: COc1cc(-c2ccc(C#N)cc2)ccc1Oc1cc(N)nc(Nc2ccc(C#N)cc2)n1
experimental_endpoint: selectivity ratio
numeric_result: 63400
//
molecule: Cc1cc(-c2ccccc2F)ccc1Oc1cc(N)nc(Nc2ccc(C#N)cc2)n1
experimental_endpoint: selectivity ratio
numeric_result: 2560
//
molecule: Cc1cc(-c2ccc(C#N)c(C#N)c2)ccc1Oc1cc(N)nc(Nc2ccc(C#N)cc2)n1
experimental_endpoint: selectivity ratio
numeric_result: 7040
//
molecule: Cc1cc(-c2ccccc2C#N)ccc1Oc1cc(N)nc(Nc2ccc(C#N)cc2)n1
experimental_endpoint: selectivity ratio
numeric_result: 2900
//
molecule: Cc1cccc(-c2cc(C)c(Oc3cc(N)nc(Nc4ccc(C#N)cc4)n3)c(C)c2)c1
experimental_endpoint: selectivity ratio
numeric_result: 404
//
molecule: Cc1ccccc1-c1cc(C)c(Oc2cc(N)nc(Nc3ccc(C#N)cc3)n2)c(C)c1
experimental_endpoint: selectivity ratio
numeric_result: 726
//
molecule: Cc1cc(-c2ccccc2C#N)cc(C)c1Oc1cc(N)nc(Nc2ccc(C#N)cc2)n1
experimental_endpoint: selectivity ratio
numeric_result: 3570
//
molecule: Cc1cc(-c2ccc(F)cc2)cc(C)c1Oc1cc(N)nc(Nc2ccc(C#N)cc2)n1
experimental_endpoint: selectivity ratio
numeric_result: 1700
//
molecule: Cc1cc(-c2ccc(F)cc2)ccc1Oc1cc(N)nc(Nc2ccc(C#N)cc2)n1
experimental_endpoint: selectivity ratio
numeric_result: 2120
//
molecule: COc1ccccc1-c1cc(C)c(Oc2cc(N)nc(Nc3ccc(C#N)cc3)n2)c(C)c1
experimental_endpoint: selectivity ratio
numeric_result: 508
//
molecule: Cc1cc(-c2ccc(C#N)c(F)c2)cc(C)c1Oc1cc(N)nc(Nc2ccc(C#N)cc2)n1
experimental_endpoint: selectivity ratio
numeric_result: 937
//
molecule: COc1cc2cc(C#N)ccc2c(OC)c1Oc1cc(N)nc(Nc2ccc(C#N)cc2)n1
experimental_endpoint: selectivity ratio
numeric_result: 3500
//
molecule: Cc1cc(-c2cccc(Cl)c2)cc(C)c1Oc1cc(N)nc(Nc2ccc(C#N)cc2)n1
experimental_endpoint: selectivity ratio
numeric_result: 588
